Target: T1, cynomolgus soluble ULBP2/6 (cULBP2/6) (cynomolgus, UniProt Q5VY80 28-217 (human entry), limits assumed)
T1 construct: also called cyno ULBP6; Cyno-cULBP2/6
T1 chain: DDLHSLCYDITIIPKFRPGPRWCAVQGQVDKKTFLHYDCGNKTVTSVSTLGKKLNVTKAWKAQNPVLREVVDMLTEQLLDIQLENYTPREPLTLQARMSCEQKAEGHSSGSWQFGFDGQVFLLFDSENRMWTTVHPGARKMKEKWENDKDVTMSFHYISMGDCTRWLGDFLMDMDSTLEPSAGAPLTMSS
Assay: SPR (BIACORE 8K, 37 C); antibody captured on Protein A, soluble ULBP injected;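 also: ligand injected as threefold dilution series in HBS-P (highest 10 or 50 nM), reference-cell and buffer-subtracted sensorgrams fitted with a 1:1 Langmuir model for on and off rates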
Endpoint: koff (s⁻¹)
Form entry: value (s⁻¹) — number only.

{"Binder": "humanized 1D4 (h1D4), Fc version not stated (antibody, V domains shown, Recombinant humanized antibody, hIgG1 backbone with kappa light chain; also called hiD4; hu1D4) VH: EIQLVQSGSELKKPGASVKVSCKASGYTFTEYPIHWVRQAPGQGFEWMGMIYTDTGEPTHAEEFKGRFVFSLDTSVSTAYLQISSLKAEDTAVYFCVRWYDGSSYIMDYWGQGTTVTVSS VL: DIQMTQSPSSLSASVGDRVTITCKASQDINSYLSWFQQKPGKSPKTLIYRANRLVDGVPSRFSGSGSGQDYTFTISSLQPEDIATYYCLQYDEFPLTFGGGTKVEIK", "koff, s⁻¹": 0.00133}
{"Binder": "humanized 7B3 (h7B3), Fc version not stated (antibody, V domains shown, Recombinant humanized antibody, hIgG1 backbone with kappa light chain; also called hu7B3; PUR3922) VH: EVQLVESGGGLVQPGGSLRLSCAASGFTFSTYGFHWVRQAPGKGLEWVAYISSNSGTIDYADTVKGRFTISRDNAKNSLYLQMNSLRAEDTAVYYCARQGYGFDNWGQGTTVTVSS VL: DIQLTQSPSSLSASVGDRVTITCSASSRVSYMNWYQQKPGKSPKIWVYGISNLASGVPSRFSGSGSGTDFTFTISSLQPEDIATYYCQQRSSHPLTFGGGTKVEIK", "koff, s⁻¹": 0.000542}
{"Binder": "humanized 8E11 (h8E11), Fc version not stated (antibody, V domains shown, Recombinant humanized antibody, hIgG1 backbone with kappa light chain; also called PUR3926) VH: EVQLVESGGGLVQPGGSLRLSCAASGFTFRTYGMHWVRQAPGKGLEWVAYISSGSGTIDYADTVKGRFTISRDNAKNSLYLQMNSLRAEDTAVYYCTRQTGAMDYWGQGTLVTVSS VL: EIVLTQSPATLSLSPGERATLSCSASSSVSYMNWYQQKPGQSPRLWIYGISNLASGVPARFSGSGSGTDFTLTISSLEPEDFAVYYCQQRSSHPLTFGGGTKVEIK", "koff, s⁻¹": 0.0045}

Okay, now this binder:
Note to self: koff recorded for humanized 6E1 (h6E1), Fc version not stated (antibody, V domains shown, Recombinant humanized antibody, hIgG1 backbone with kappa light chain; also called hu6E1; PUR3993) VH: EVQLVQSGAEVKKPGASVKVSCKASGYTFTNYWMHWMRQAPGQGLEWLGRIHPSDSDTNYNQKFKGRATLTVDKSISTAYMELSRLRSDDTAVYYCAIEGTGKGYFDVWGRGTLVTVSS VL: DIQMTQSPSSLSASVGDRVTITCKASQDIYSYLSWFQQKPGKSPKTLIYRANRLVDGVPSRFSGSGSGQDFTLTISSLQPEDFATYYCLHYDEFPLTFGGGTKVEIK was 0.0115
